Reference source for all entries: PubChem BioAssay (NCI)

Experiment: NCI Yeast Anticancer Drug Screen. Data for the cln2 rad14 strain (AID 165);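 also: 0% = growth equal to vehicle treated cultures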
Conditions: S. cerevisiae cln2 rad14 strain, at 5.0 µM (retest, dose inferred, filed as 0.5), active compounds read high
About 79,000 compounds went through this panel and 15% of them were active in at least one assay; those are over-represented in the sample as a whole.
metric: growth inhibition (%)
Report only the number, with the unit % understood.

Answer with reported growth inhibition of "COC(=O)c1ccc2ccccc2c1" 2

Answer with reported growth inhibition of "CN(C)c1ccc(/C=C/c2ccnc3ccccc23)c(O)c1" 3

Answer with reported growth inhibition of "CCOC(=O)C(=N\Nc1ccccc1C)/C(C)=N\NC(N)=S" -13

Answer with reported growth inhibition of "CC(=O)Oc1ccc(-c2ccc(Br)cc2)cc1" -11

Answer with reported growth inhibition of "O=C(O)c1cc2oc(-c3ccccc3)cc2[nH]1" -32

Answer with reported growth inhibition of "CCCCOC(=O)C(=O)/C(=C/N1C(=O)/C(=C/C(C)=C/c2ccccc2)SC1=S)C(=O)C=C(C)C" -25

Answer with reported growth inhibition of "Cc1ccccc1N1C(=O)c2ccccc2C1=O" 6

Answer with reported growth inhibition of "c1ccc(-n2c3ccccc3c3ccccc32)cc1" 1

Answer with reported growth inhibition of "COc1cc2cnc(-c3ccccc3)cc2cc1OC" -15

Answer with reported growth inhibition of CN1c2ccccc2C(c2ccccc2)c2ccc(Nc3ccccc3)cc21 (stereo not drawn) 95

Answer with reported growth inhibition of "C[n+]1cccc2c1-c1ccccc1C2=O" -3

Answer with reported growth inhibition of CCCN(CCC)CC(O)c1ccc2ccc3ccc(Cl)cc3c2c1 (stereo not drawn) 29

Answer with reported growth inhibition of "CCOc1cc2c(OCc3ccccc3)cc3c4cc(OC)c(OC)cc4c[n+](C)c3c2cc1OC" 97

Answer with reported growth inhibition of CN(/N=C/C(O)C(O)C(O)CO)c1ccccc1 (stereo not drawn) 14

Answer with reported growth inhibition of CC(C(=O)O)C(N)C(=O)O (stereo not drawn) 6

Answer with reported growth inhibition of "OCN(CO)c1ccc2c(c1)Cc1cc(F)ccc1-2" 1

Answer with reported growth inhibition of COC(OC)C1C2C3C=CC(C4C(=O)OC(=O)C34)C12 (stereo not drawn) -2

Answer with reported growth inhibition of "CCCN1CCN(c2ccc([N+](=O)[O-])c3no[n+]([O-])c23)CC1" 52
